- PROTOCOL SUMMARY: Appearance of 10 g solution of (2.5 wt % ai 2,4-D DMA + tested chemical) after adding 40% AMS
- Format: physicochemical
- EXPERIMENTAL CONTEXT: 0.13 wt % a.i. of tested chemical, 2.5 wt % ai 2,4-D DMA, 0 gram 40% AMS
READOUT TYPE: 0 gram Appearance

>>> df
                                   compound       readout_type  result
0                CC(C)O [Isopropyl alcohol]  0 gram Appearance   Clear
1  CCCCOCCOC(C)=O [Butyl cellosolve Acetate (C4—O—C—C—OOCC), Butyl cellosolve Acetate]  0 gram Appearance   Clear
2       CN1CCCC1=O [Methyl-2-pyrrolidinone]  0 gram Appearance   Clear

----------
- PROTOCOL SUMMARY: Appearance of 10 g solution of (2.5 wt % ai 2,4-D DMA + tested chemical) after adding 40% AMS
- Assay type: physicochemical
- EXPERIMENTAL CONTEXT: 0.13 wt % a.i. of tested chemical, 10 g solution, 2.5 wt % ai 2,4-D DMA
READOUT TYPE: Addition Weight of 40% AMS: System was cloud after adding (grams)
Field: numeric (grams). Do not append units.

Value lookup for Addition Weight of 40% AMS: System was cloud after adding; key = CC(C)O
0.461

Value lookup for Addition Weight of 40% AMS: System was cloud after adding; key = CN1CCCC1=O
0.567

Value lookup for Addition Weight of 40% AMS: System was cloud after adding; key = CCCCOCCOC(C)=O [Butyl cellosolve Acetate (C4—O—C—C—OOCC), Butyl cellosolve Acetate]
0.324

Value lookup for Addition Weight of 40% AMS: System was cloud after adding; key = CCCCC(CC)COC(=O)CC(C(=O)OCC(CC)CCCC)S(=O)(=O)[O-].[Na+] (stereo not shown) [Sodium dioctyl sulfonsuccinate]
0
